Would you kindly list pIC50 for each of these molecules?
Target: pseudo-kinase domain (JH2) of human Wild Type JAK2 (Homo sapiens, UniProt O60674, F794H/W659A/W777A)
Construct: pseudo-kinase domain (JH2, amino-acids 536-812 with 3 surface mutations W659A, W777A, F794H); His (C)
Sequence (O60674 536-812 W659A/W777A/F794H): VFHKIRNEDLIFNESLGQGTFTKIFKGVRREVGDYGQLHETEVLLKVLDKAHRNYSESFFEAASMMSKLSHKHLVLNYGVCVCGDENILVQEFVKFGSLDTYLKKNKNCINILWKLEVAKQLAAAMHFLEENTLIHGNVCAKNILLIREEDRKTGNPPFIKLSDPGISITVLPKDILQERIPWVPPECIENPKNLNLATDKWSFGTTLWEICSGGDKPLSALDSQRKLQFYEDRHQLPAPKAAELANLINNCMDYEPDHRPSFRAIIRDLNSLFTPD
Assay: JAK2 LanthaScreen JH2-WT Binding Assay
Conditions: 50 nM Fluorescent JAK2-JH2 Tracer, 1 hour at 25° C.
pIC50: −log10 of the molar value.

### Prompt Need pIC50 of CN(C)S(=O)(=O)c1ccc(-c2[nH]c3nc(N)[nH]c(=O)c3c2-c2ccccc2C#N)cc1 , thanks.
### Response < 5.60

### Prompt Need pIC50 of COc1ccc(-c2c(-c3ccc(S(=O)(=O)N(C)C)cc3)[nH]c3nc(N)[nH]c(=O)c23)c(OC)c1 , thanks.
### Response 6.00 to 6.30

### Prompt Need pIC50 of COc1ccccc1-c1c(-c2ccccc2)[nH]c2nc(N)[nH]c(=O)c12 , thanks.
### Response 5.60 to 6.00

### Prompt Need pIC50 of CN(C)S(=O)(=O)c1ccc(-c2[nH]c3nc(N)[nH]c(=O)c3c2-c2cccc(C(N)=O)c2)cc1 , thanks.
### Response 5.60 to 6.00

### Prompt Need pIC50 of CN(C)S(=O)(=O)c1ccc(-c2[nH]c3nc(N)[nH]c(=O)c3c2-c2ccc3c(c2)CCNC3=O)cc1 , thanks.
### Response 6.30 to 7.00

### Prompt Need pIC50 of COc1ccc(Cl)cc1-c1c(-c2ccc(S(=O)(=O)N(C)C)cc2)[nH]c2nc(N)[nH]c(=O)c12 , thanks.
### Response 5.60 to 6.00

### Prompt Need pIC50 of CN(C)S(=O)(=O)c1ccc(-c2[nH]c3nc(N)[nH]c(=O)c3c2-c2cccc(CN)c2)cc1 , thanks.
### Response 5.60 to 6.00
